Test system: large crabgrass
Experimental Details: Test B pre-/postemergence herbicide test
Assay type: in vivo, Digitaria sanguinalis
Assay Context: 500 g ai/ha; visual rating 0-100, 0 no effect, 100 complete control; preemergence
Measured Plant response rating, Crabgrass, Large of individual entries
Endpoint Name: Plant response rating, Crabgrass, Large

- Molecular String: "CCNC(=O)c1ccc(F)c(NC(=O)c2cn(C(C)(C)C)nc2CC)c1"
  Value Observed: 100
- Molecular String: "CCn1nc(C(C)(C)C)cc1C(=O)Nc1cc(C(=O)NCC2CC2)ccn1"
  Value Observed: 100
- Molecular String: "Cc1nn(C(C)(C)C)cc1C(=O)Nc1cccc(OC(C)C)c1"
  Value Observed: 60
